Reference for the values: BindingDB's records for doi:10.1021/jm401509e

# procedureSummary: Inhibition of CRTH2 receptor-mediated chemotaxis in human basophils
quantityName: pIC50
Scale explanation: pIC50 corresponds to minus log10 of a concentration expressed in moles per litre.

What does the data say about its pIC50? Entry: Cc1c(-c2cn(C(C)C)c(=O)c3ccccc23)c2cc(F)ccc2n1CC(=O)O
8.92

---

# procedureSummary: Antagonist activity at CRTh2 in human peripheral blood assessed as inhibition of PGD2-induced eosinophil shape change at room temperature by flow cytometry
Recorded pIC50 values for a group of molecules are listed next.
Scale explanation: pIC50 corresponds to minus log10 of a concentration expressed in moles per litre.

>  <compound>
Cc1c(-c2cn(CCCC(F)(F)F)c(=O)c3ccccc23)c2cc(F)ccc2n1CC(=O)O

>  <endpointResult>
8.52

$$$$
>  <compound>
Cc1c(-c2cn(C(C)C)c(=O)c3ccccc23)c2cc(F)ccc2n1CC(=O)O

>  <endpointResult>
8.10

$$$$
>  <compound>
Cc1c(-c2cn(CC(F)(F)F)c(=O)c3ccccc23)c2cc(F)ccc2n1CC(=O)O

>  <endpointResult>
7.72

$$$$

Now for the molecule whose pIC50 we want.
What does the data say about its pIC50? Entry: Cc1c(-c2cn(CC(C)(C)C)c(=O)c3ccccc23)c2cc(F)ccc2n1CC(=O)O
7.74
